# protocol.details: Cmax in Sprague-Dawley rat at 5 mg/kg, po
# Assay type: ADME, organism-based
# Design: dose 5 mg/kg, route oral
# assay.setup: in vivo
value.kind: Cmax (ng/mL)

[[record]]
compound = "CCCCCNC(=N)N/N=C/c1c[nH]c2ccc(OC)cc12 [TEGASEROD]"
endpoint_result = 6

[[record]]
compound = "CC(C)n1c(=O)c(C(=O)N[C@H]2C[C@H]3CC[C@@H](C2)N3C[C@@H](O)CN2CCN(S(C)(=O)=O)CC2)cc2ccccc21"
endpoint_result = 31

[[record]]
compound = "CC(C)n1c(=O)c(C(=O)N[C@H]2C[C@H]3CC[C@@H](C2)N3CCCCCCCN2CCN(S(C)(=O)=O)CC2)cc2ccccc21"
endpoint_result = 10

[[record]]
compound = "CC(C)n1c(=O)c(C(=O)N[C@H]2C[C@H]3CC[C@@H](C2)N3CCCN2CCN(S(C)(=O)=O)CC2)cc2ccccc21"
endpoint_result = 34

